Kindly supply the reported pKd values for the records listed here.
Target: T1, phospholipase A2 (PLA2) (Homo sapiens (Human), UniProt O15496 43-165)
T1 construct: PLA2 as used in Biacore, MCAB binning, peptide scan and the purified-antibody functional assay; also called PLA2 antigen
T1 sequence: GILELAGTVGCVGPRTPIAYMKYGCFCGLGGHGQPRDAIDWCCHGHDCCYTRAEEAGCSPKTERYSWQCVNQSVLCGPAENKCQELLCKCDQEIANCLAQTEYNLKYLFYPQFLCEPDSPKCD
Experiment: Biacore 2000, captured Ab, global 1:1 fit
One number for each entry, as −log10 of the molar value.

Recorded results for 2 binders are shown here.
response.value for anti-PLA2 mAb 2.7 (antibody, IgG4, V domains shown, also called 2.7.1) VH: GVQLVQSGAEVKKPGESLKISCKGSGYSFTNYWIGWVRQMPGKGLEWMGIIYPGDSDTRYSPSFQGQVTISADKSISTAYLQWSSLKASDTAIYYCARGGVGAFDIWGQGTMVTVSS VL: EIVLTQSPGTLSLSPGERATLSCRASQIIRRSSLAWYQEKPGQAPRLLIYGASSRATGIPDRFSGSGSGTDFTLTISRLEPEDFAVYYCQQYGSSPPFTFGPGTKVDIKR (field: pKd) = 8.00

response.value for anti-PLA2 mAb 1.27 (antibody, IgG2, V domains shown) VH: EVQLVQSGAEVKKPGESLKISCKGSGYSFTSYWIGWVRQMPGKGLEWMGIIYPGDSDTRYSPSFQGQVTISADKSISTAYLQWSSLKASDTAMYYCARSWTYGMDVWGQGTTVTVSS VL: EIVLTQSPGTLSLSPGERATLSCRASQSVRSNYLTWYQQKPGQAPRLLIYGASTRATGIPDRFSGSGSGTDFTLTISRLEPEDFAVYYCQQYGSSPLTFGGGTKVEIKR (field: pKd) = 7.57

Report pKd for every entry below.
1. anti-PLA2 mAb 2.23 (antibody, IgG4, V domains shown) VH: QVQLEESGGGVVQPGRSLRLSCAASGFTFSSYGMHWVRQGPGKGLEWVAVIWYDGSNKKYADSVKGRFTISRDNSKNTLYLQMNSLRAEDTAVYYCARDGPIFGVVMGYWGQGTLVTVSS VL: DIQMTQSPSSLSASVGDRVTITCRTSQSISNYLNWFQQKPGKAPILLIYAASSLQSGVPSRFSGSGSGTDFTLTISSLQPEDFATYYCHQSYSIPITFGQGTRLEIKR
2. anti-PLA2 mAb 1.7 (antibody, IgG2, V domains shown, also called 1.7.1) VH: EVQLVQSGAEVKKPGESLKISCKGSGYSFISYWIGWVRQMPGKGLEWMGIIYPGDSDTRYSPSFQGQVTISADKSISTAYLQWSSLKASDTAMYYCARSWTYALDVWGQGTAVTVSS VL: EIVLTQSPGTLSLSPGERATLSCRPSQSVRSNYLTWYQQKPGQAPRLLIYGASTRATGIPDRFSGSGSGTDFTLTVSRLEPEDFAVYYCQQYGSSPLTFGGGTKVEIKR

1: 6.92; 2: 8.02

Report pKd for every entry below.
1. anti-PLA2 mAb 1.5 (antibody, IgG2, V domains shown, also called 1.5.1) VH: EVQLVQSGAEVKKPGESLKISCKGSGYSFISYWIGWVRQMPGKGLEWMGIIYPGDSDTRYSPSFQGQVTISADKSISTAYLQWSSLKASDTAMYYCARHWSYGMDVWGQGTTVTVSS VL: EIVLTQSPGTLSLSPGERATLSCRASQSVRSGYLAWYQQRPGQAPRFLIYGASSRATGIPDRFSGSGSGTDFTLTISRLEPEDFAVYYCQQYGSSPLTFGGGTKVEIKR
2. anti-PLA2 mAb 2.15 (antibody, IgG4, V domains shown) VH: QVQLVESGGGVVQPGRSLRLSCAASGFTFSSYGMHWVRQAPGKGLEWVAVIWYDGSNKYYADSVKGRFTISRDNSKNTLYLQMNSLRAEDTAVYYCARRDWNYAFDIWGQGTMVTVSS VL: DIQMTQSPSSLSASVGDRVTITCRASQSISNYLNWYQQKPGKAPKFLIYAASSLQSGAPSRFSGSGSGTDFTLTISSLQPEDFATYYCQQSYSTPITFGQGTRLEIKR
3. anti-PLA2 mAb 1.18 (antibody, IgG2, V domains shown) VH: EVQLVQSGAEVKKPGESLKISCKGSGYSFTNYWINWVRQMPGKGLEWMGIIYPGDSDTRYSPSFQGQVTISADKSISTAYLQWSSLKASDTAMYYCARHRLGFDYWGQGTLVTVSS VL: DIQMTQSPSSLSASVGDRVTITCRASQGIRNDLDWCQQKPGKAPKRLIYAASSLQSGVPSRFSGSGSGTEFTLTISSLQPEDFATYYCLQHNNYPPTFGQGTKVEIKR

[7.82, 7.00, 7.30]
